# pIC50 measurements, system: Sialidase (Clostridium perfringens, UniProt P10481)
By convention, pIC50 is the negative base-10 log of a molar concentration.

Tell me the measured pIC50 of O=c1c(O)c(-c2ccc(O)c(O)c2)oc2cc(O)cc(O)c12 , please. 5.00

Similarly, CC(C)=CCC/C(C)=C/Cc1cc2c(cc1O)OC[C@H]1c3cc(C)c(O)c(CC=C(C)C)c3O[C@@H]21 ? 5.97

Next compound: COc1c(CC=C(C)C)c(O)cc2c1[C@@H]1Oc3c(cc(C)c(O)c3CC=C(C)C)[C@@H]1CO2 6.49

Next compound: COc1c(CC=C(C)C)c(O)cc2c1[C@@H]1Oc3c(ccc(O)c3CC=C(C)C)[C@@H]1CO2 7.05

###

Each entry below carries its measured Ki, system: Sialidase (Clostridium perfringens, UniProt P10481).
The answer is to be given in nM; state only the numeric part.

What value of Ki has been reported for the following compound? CC(C)=CCc1cc2c(cc1O)OCC1c3cc(C)c(O)c(CC=C(C)C)c3OC21 (stereo unspecified) 1350

Queued: COc1cc(O)c(C/C=C(\C)CCC=C(C)C)c2c1[C@@H]1Oc3cc(O)ccc3[C@@H]1CO2 160

Follow-up item: CC(C)=CCc1cc2c(cc1O)OC[C@H]1c3ccc(O)c(CC=C(C)C)c3O[C@@H]21 2730

Moving on to CC(C)=CCC/C(C)=C/Cc1cc2c(cc1O)OC[C@H]1c3cc(C)c(O)c(CC=C(C)C)c3O[C@@H]21 1200

Now try COc1c(CC=C(C)C)c(O)cc2c1[C@@H]1Oc3c(cc(C)c(O)c3CC=C(C)C)[C@@H]1CO2 . 160

Similarly, COc1c(CC=C(C)C)c(O)cc2c1[C@@H]1Oc3c(ccc(O)c3CC=C(C)C)[C@@H]1CO2 ? 110

###

system_under_test: Sialidase (Clostridium perfringens)
Sequence (P10481 whole entry): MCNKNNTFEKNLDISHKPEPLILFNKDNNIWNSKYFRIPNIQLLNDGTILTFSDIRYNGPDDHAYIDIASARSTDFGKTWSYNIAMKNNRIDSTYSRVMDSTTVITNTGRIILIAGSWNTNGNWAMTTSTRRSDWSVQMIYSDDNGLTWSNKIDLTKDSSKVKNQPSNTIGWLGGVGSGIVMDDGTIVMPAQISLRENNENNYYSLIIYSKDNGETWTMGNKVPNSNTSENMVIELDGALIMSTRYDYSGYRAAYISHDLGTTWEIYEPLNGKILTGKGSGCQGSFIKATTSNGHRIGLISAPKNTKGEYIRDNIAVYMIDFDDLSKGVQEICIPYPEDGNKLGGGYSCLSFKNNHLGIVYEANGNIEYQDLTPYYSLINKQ
Provide the reported IC50 of each item.
Give your result in nM as a bare value.

Entry COc1cc(O)c(C/C=C(\C)CCC=C(C)C)c2c1[C@@H]1Oc3cc(O)ccc3[C@@H]1CO2 : reported IC50 = ? 170

Moving on to CC(C)=CCc1cc2c(cc1O)OC[C@H]1c3ccc(O)c(CC=C(C)C)c3O[C@@H]21 3350

Now give it for CC(C)=CCc1cc2c(cc1O)OCC1c3cc(C)c(O)c(CC=C(C)C)c3OC21 (stereo not drawn) too. 1840
